system: Phl p 5b-reactive T cell lines (TCLs) from allergic patients; test: Proliferative reaction of Phl p 5b-reactive oligoclonal T cell lines ([3H]-thymidine incorporation); format: cell-based, human; settings: primary stimulator r Phl p 5b; secondary activator 0.3 μM
readout-name: Incorporation of [3H]-thymidine into TCL 7 19.2 (stimulation index class)

molecule	value-observed
rPhl p 5b point mutant PM3 (A13C) (protein) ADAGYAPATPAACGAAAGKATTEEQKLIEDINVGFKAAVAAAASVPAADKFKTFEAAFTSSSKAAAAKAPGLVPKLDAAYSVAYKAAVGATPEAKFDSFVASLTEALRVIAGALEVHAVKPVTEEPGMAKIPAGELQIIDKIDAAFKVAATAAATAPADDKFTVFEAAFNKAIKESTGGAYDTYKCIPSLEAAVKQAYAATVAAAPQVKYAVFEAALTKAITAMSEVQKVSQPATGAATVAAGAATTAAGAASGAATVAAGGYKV	+++ (>10 (+++))
rPhl p 5b point mutant PM1 (N32D, D49L, K50A) (protein) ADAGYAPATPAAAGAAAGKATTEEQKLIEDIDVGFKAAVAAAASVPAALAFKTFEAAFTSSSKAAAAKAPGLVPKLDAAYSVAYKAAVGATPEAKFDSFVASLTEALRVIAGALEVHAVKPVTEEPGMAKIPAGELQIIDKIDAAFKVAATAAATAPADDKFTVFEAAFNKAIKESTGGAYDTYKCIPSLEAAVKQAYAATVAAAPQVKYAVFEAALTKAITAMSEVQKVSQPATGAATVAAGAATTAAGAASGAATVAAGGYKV	+++ (>10 (+++))
rPhl p 5b deletion mutant DM3 (deletion A154-T177, A220T) (protein) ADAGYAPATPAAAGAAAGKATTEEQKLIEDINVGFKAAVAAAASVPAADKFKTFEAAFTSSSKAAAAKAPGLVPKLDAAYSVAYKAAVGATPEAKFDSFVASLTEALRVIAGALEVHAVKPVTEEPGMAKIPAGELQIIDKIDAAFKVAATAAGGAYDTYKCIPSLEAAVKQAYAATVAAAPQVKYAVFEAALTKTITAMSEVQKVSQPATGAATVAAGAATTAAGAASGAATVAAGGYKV	+++ (>10 (+++))
